Kindly supply the reported inhibition at 1.7 µM values for the records listed here.
# Test System: Human glucocorticoid receptors (Homo sapiens, UniProt P04150)
# Construct: made in house; host or cells: Sf9 insect cells, recombinant baculovirus (BAC-TO-BAC)
# Sequence (P04150 1-777): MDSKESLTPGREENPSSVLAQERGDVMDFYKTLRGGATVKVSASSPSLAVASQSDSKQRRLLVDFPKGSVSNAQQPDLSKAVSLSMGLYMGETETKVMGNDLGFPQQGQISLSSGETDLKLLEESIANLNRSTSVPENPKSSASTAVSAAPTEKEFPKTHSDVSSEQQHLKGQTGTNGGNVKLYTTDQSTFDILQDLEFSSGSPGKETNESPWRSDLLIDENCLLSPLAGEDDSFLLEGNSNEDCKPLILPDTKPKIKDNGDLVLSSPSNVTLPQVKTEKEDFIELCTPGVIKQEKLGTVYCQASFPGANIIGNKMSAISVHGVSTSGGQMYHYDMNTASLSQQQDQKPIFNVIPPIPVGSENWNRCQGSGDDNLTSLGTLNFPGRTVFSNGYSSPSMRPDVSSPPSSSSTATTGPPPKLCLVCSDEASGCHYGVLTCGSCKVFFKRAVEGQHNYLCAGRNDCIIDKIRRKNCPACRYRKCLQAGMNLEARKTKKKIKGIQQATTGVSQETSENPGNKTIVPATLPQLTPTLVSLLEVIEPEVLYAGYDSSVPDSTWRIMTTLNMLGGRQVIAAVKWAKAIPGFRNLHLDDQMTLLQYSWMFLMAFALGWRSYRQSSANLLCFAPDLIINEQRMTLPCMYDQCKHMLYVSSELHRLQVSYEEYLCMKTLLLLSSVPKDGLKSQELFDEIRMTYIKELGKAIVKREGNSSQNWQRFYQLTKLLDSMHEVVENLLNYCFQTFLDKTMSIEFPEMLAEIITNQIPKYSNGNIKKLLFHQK
# Protocol Summary: Radioligand filter binding assay, displacement of 3[H]-dexamethasone from hGR
# Test Conditions: read-out: GR Binding (% Inhibition at 1.7 μM)
One number for each entry, in %.

Answered examples (6):
Cc1c(NS(C)(=O)=O)cccc1N(Cc1ccccc1)Cc1ccc(Oc2ccc(Cl)c(OCCCC(=O)NCCCC(=O)O)c2)cc1 96.4
COc1ccc(NS(C)(=O)=O)cc1N(Cc1ccccc1Br)Cc1ccccc1Br 85.5
Cc1c(NS(C)(=O)=O)cccc1N(Cc1ccccc1)Cc1ccc(Oc2cccc(OCc3cccnc3)c2)cc1 89.1
Cc1c(NS(C)(=O)=O)cccc1N(Cc1ccc(Oc2ccc(Cl)c(OCC(=O)O)c2)cc1)Cc1ccccc1Br 97
C=CCOc1ccc(CN(Cc2ccc(F)cc2F)c2cccc(NS(C)(=O)=O)c2C)cc1 84.2
Cc1c(NS(C)(=O)=O)cccc1N(Cc1ccccc1)Cc1ccc(Oc2cccc(OC[C@@H]3CCCN3)c2)cc1 87.7

Continue with the compound presented below.
// query Look up Human glucocorticoid receptors (Homo sapiens, UniProt P04150) data: inhibition at 1.7 µM of "Cc1c(NS(C)(=O)=O)cccc1N(Cc1ccccc1)Cc1ccc(C(=O)c2cccc(OCC3CCCC3)c2)cc1" , then report it.
// result 92

====

Would you kindly list inhibition at 1.7 µM for each of these molecules?
# Test System: Human glucocorticoid receptors (Homo sapiens)
# Construct: made in house; host or cells: Sf9 insect cells, recombinant baculovirus (BAC-TO-BAC)
# Protocol Summary: Radioligand filter binding assay, displacement of 3[H]-dexamethasone from hGR
# Test Conditions: read-out: GR Binding (% Inhibition at 1.7 μM)
Numbers only, in %.

Molecule	Test System	inhibition at 1.7 µM, %
CCOC(=O)COc1cc(Oc2ccc(CN(Cc3ccc(F)cc3F)c3cccc(NS(C)(=O)=O)c3C)cc2)ccc1Cl [Example 241]	Human glucocorticoid receptors (Homo sapiens)	90.6
Cc1c(NS(C)(=O)=O)cccc1N(Cc1ccccc1)Cc1ccc(Oc2ccc(OCCCC(=O)N[C@@H](CO)C(=O)O)cc2)cc1 [Example 258]	Human glucocorticoid receptors (Homo sapiens)	91.6
Cc1c(NS(C)(=O)=O)cccc1N(Cc1ccccc1)Cc1ccc(Oc2cccc(OC[C@@H]3CCC(=O)N3)c2)cc1 [Example 278]	Human glucocorticoid receptors (Homo sapiens)	90.1
Cc1c(NS(C)(=O)=O)cccc1N(Cc1ccc(F)cc1)Cc1ccc(Oc2ccc(CCC(=O)O)cc2)cc1 [Example 85]	Human glucocorticoid receptors (Homo sapiens)	96.9
Cc1c(NS(C)(=O)=O)cccc1N(Cc1ccc(Oc2ccc(CCC(=O)O)cc2)cc1)Cc1ccccc1Br [Example 76]	Human glucocorticoid receptors (Homo sapiens)	96.5

For each listed entry, give its inhibition at 1.7 µM.
1. Cc1c(NS(C)(=O)=O)cccc1N(Cc1ccccc1)Cc1ccc(Oc2cccc(OCCCCC(=O)O)c2)cc1 [Example 117]
2. COC(=O)NCCOc1cccc(Oc2ccc(CN(Cc3ccccc3)c3cccc(NS(C)(=O)=O)c3C)cc2)c1 [Example 82]

// result
98.1
96.9
